All values here come from ChEMBL document CHEMBL1961873.

Target: Ribosomal protein S6 kinase alpha-5 (Homo sapiens) (UniProt O75582);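 further: mean inhibition of MSK1, from screening of the GSK PKIS inhibitor set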
Sequence (O75582 whole entry, looked up): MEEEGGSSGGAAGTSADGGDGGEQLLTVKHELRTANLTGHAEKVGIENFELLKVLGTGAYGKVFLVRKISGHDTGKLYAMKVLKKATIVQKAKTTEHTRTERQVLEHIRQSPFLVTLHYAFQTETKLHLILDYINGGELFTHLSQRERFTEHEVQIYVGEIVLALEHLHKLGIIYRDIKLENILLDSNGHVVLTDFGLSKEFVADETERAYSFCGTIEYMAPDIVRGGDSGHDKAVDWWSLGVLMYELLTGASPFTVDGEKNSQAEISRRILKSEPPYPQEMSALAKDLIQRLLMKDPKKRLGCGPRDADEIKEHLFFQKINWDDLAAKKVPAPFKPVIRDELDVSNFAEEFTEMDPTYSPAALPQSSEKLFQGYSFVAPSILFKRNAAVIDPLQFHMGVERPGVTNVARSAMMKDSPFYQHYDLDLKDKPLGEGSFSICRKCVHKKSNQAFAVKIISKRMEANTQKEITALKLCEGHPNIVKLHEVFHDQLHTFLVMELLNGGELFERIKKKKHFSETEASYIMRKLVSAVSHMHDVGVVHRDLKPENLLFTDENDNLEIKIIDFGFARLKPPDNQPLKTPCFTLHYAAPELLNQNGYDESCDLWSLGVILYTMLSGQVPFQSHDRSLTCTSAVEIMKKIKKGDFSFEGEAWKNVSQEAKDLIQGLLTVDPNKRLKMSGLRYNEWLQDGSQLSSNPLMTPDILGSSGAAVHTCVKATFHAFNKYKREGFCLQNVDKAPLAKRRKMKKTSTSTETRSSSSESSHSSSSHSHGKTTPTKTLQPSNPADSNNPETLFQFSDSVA
Settings: at 1 µM
# inhibition per entry
readout-label: inhibition (%)

[[record]]
smiles = "CNC(=O)c1cncc(/C=C/c2ccccc2C)c1"
readout_label = "inhibition"
reported_result = 6.01

[[record]]
smiles = "NC(=O)c1ccc2c(-c3ccnc(NCCCO)n3)c(-c3ccc(F)cc3)nn2c1"
readout_label = "inhibition"
reported_result = 8.01

[[record]]
smiles = "CCN1CCC(C(=O)Nc2n[nH]c3nnc(-c4cccc(F)c4F)cc23)CC1"
readout_label = "inhibition"
reported_result = -2.44

[[record]]
smiles = "Cc1cc(O)cc(C)c1/C=C/c1cncc(C(N)=O)c1"
readout_label = "inhibition"
reported_result = 2.9

[[record]]
smiles = "CNC(=O)c1sc(-n2cnc3cc(OC)c(OC)cc32)cc1OCc1ccccc1C(F)(F)F"
readout_label = "inhibition"
reported_result = -0.43

[[record]]
smiles = "CCCNc1cccc(-n2ncc3c(N/N=C/c4ccncc4)ncnc32)c1"
readout_label = "inhibition"
reported_result = -2.6

[[record]]
smiles = "Cc1nnc(-c2cccc(-c3ccc(C(=O)NCC4CC4)cc3)c2)o1"
readout_label = "inhibition"
reported_result = 3.95

[[record]]
smiles = "COC(=O)Nc1nc2cc(Oc3ccc(NC(=O)Nc4ccccc4)cc3)ccc2[nH]1"
readout_label = "inhibition"
reported_result = 2.36

[[record]]
smiles = "Fc1ccc(Nc2nccc(-c3c(-c4ccc(C(F)(F)F)cc4)nn4ncccc34)n2)cc1F"
readout_label = "inhibition"
reported_result = 2.7

[[record]]
smiles = "COc1cc(N2CCN(C(C)C)CC2)ccc1Nc1nc(Nc2cccc3ncccc23)c2cc[nH]c2n1"
readout_label = "inhibition"
reported_result = 1.16


* * *

Molecular target: Ribosomal protein S6 kinase alpha-4 (Homo sapiens) (UniProt O75676);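 further: values are mean inhibition of MSK2, from GSK PKIS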
Sequence (O75676 whole entry, looked up): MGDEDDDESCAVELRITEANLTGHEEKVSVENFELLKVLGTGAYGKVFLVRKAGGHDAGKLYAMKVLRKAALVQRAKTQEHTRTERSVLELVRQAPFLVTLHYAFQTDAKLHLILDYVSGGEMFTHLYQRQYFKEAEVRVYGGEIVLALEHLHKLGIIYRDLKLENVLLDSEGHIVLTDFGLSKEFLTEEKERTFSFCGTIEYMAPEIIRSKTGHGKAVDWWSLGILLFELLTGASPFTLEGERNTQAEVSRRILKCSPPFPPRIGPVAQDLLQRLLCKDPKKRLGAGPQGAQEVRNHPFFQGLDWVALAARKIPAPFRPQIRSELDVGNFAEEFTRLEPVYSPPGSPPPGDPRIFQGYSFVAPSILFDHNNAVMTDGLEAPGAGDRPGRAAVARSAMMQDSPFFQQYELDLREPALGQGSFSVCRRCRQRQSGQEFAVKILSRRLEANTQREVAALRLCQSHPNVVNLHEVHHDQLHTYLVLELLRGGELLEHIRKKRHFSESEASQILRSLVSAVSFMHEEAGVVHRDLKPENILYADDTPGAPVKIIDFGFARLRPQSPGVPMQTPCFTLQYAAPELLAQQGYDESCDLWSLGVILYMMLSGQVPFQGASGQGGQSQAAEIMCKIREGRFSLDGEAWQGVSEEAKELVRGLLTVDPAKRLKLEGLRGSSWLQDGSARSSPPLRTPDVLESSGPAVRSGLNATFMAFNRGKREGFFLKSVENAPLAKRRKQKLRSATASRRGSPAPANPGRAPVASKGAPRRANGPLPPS
Details: at 0.1 µM
// inhibition lookup, one value per entry
readout-label: inhibition (%)

[[record]]
smiles = "COc1cc2c(cc1Nc1nc(Nc3cccc(F)c3C(N)=O)c3cc[nH]c3n1)N(C(=O)CN1CCN(C(C)C)CC1)CC2"
experimental_target = "Ribosomal protein S6 kinase alpha-4 (Homo sapiens) (UniProt O75676)"
reported_result = 1.44

[[record]]
smiles = "Cc1cc(O)cc(C)c1/C=C/c1cncc(C(N)=O)c1"
experimental_target = "Ribosomal protein S6 kinase alpha-4 (Homo sapiens) (UniProt O75676)"
reported_result = 1.67

[[record]]
smiles = "Cc1ccc(-c2cc3c(NC(=O)C4CC4)ncnc3o2)cc1"
experimental_target = "Ribosomal protein S6 kinase alpha-4 (Homo sapiens) (UniProt O75676)"
reported_result = 2.15

[[record]]
smiles = "COc1cc(Nc2ncc(-c3ccccc3)o2)cc(OC)c1"
experimental_target = "Ribosomal protein S6 kinase alpha-4 (Homo sapiens) (UniProt O75676)"
reported_result = 2.85

[[record]]
smiles = "CS(=O)(=O)CCNCc1ccc(-c2ccc3ncnc(Nc4ccc(OCc5ccccc5)cc4)c3c2)o1"
experimental_target = "Ribosomal protein S6 kinase alpha-4 (Homo sapiens) (UniProt O75676)"
reported_result = 3.06

[[record]]
smiles = "CNC(=O)c1sc(-n2cnc3cc(OC)c(OC)cc32)cc1OCc1ccccc1C(F)(F)F"
experimental_target = "Ribosomal protein S6 kinase alpha-4 (Homo sapiens) (UniProt O75676)"
reported_result = 3.06

[[record]]
smiles = "NS(=O)(=O)c1ccc(N/N=C2\\C(=O)Nc3ccc(C(=O)NCc4ccncc4)cc32)cc1"
experimental_target = "Ribosomal protein S6 kinase alpha-4 (Homo sapiens) (UniProt O75676)"
reported_result = 3.9

[[record]]
smiles = "Cc1c2ccc(N(C)c3ccnc(Nc4cccc(S(N)(=O)=O)c4)n3)cc2nn1C"
experimental_target = "Ribosomal protein S6 kinase alpha-4 (Homo sapiens) (UniProt O75676)"
reported_result = 2.14

